Attribution: patent US12180193B2

Target: BRAF G466V (Homo sapiens, UniProt P15056, G466V)
Construct: expressed in transfected cells
Sequence (P15056 whole entry G466V): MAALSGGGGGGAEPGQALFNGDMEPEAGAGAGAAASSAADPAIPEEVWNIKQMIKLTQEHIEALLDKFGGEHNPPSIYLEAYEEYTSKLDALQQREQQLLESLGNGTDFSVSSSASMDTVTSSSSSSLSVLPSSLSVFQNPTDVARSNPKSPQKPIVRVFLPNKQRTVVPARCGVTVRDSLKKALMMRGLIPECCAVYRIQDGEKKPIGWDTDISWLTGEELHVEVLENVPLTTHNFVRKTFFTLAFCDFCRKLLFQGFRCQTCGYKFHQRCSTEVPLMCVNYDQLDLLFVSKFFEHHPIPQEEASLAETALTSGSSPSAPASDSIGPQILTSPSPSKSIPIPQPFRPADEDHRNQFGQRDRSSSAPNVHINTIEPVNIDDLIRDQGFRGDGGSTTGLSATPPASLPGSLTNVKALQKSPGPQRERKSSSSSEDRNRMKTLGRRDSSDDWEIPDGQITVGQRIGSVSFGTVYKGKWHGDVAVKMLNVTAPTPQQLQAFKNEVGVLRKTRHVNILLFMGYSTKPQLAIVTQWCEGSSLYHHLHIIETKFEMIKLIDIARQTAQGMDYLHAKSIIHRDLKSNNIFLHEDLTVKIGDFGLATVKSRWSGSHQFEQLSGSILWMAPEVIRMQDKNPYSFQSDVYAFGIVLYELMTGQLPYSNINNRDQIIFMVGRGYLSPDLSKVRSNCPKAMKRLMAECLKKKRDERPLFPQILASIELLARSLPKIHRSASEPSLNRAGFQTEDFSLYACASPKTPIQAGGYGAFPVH
Assay: Cellular assay of target protein degradation, T-Rex 293 cells stably transfected with HA-BRAF G466V (HA immunofluorescence, high content imaging)
Type: cell-based
Details: half maximal degradation, T-Rex 293 HA-BRAF G466V; read-out: BRaf G466V DC50
Reported Property: DC50

Previously resolved entries follow.
Compound	DC50
O=C1CCC(N2Cc3cc(N4CCN(CCc5ccc(-c6cnc7[nH]cc(C(=O)c8c(F)ccc(NS(=O)(=O)N9CC[C@@H](F)C9)c8F)c7c6)cc5)CC4)c(F)cc3C2=O)C(=O)N1 (some centres unmarked) [Compound 152]	1 to 10 nM
O=C1CCC(N2Cc3cc(N4CCN(CC5CCN(c6ccc(-c7cnc8[nH]cc(C(=O)c9c(F)ccc(NS(=O)(=O)N%10CC[C@@H](F)C%10)c9F)c8c7)cc6)CC5)CC(F)(F)C4)ccc3C2=O)C(=O)N1 (some centres unmarked) [Compound 333]	1 to 10 nM
O=C1CCC(N2Cc3cc(CCCCN4CCN(c5ccc(-c6cnc7[nH]cc(C(=O)c8c(F)ccc(NS(=O)(=O)N9CC[C@@H](F)C9)c8F)c7c6)cc5)CC4)ccc3C2=O)C(=O)N1 (some centres unmarked) [Compound 325]	1 to 10 nM
O=C1CCC(N2Cc3cc(C4CCN(CC5(O)CCN(c6ccc(-c7cnc8[nH]cc(C(=O)c9c(F)ccc(NS(=O)(=O)N%10CC[C@@H](F)C%10)c9F)c8c7)cc6)CC5)CC4)ccc3C2=O)C(=O)N1 (some centres unmarked) [Compound 119]	< 1 nM

INPUT: Which value of DC50 has been reported for O=C1CC[C@@H](N2Cc3cc(N4C[C@H]5CN(CC6CCN(c7ccc(-c8cnc9[nH]cc(C(=O)c%10c(F)ccc(NS(=O)(=O)N%11CC[C@@H](F)C%11)c%10F)c9c8)cc7)CC6)C[C@H]5C4)ccc3C2=O)C(=O)N1 [Compound 58] in the records?
OUTPUT: < 1 nM

---

Target: BRAF V600E (Homo sapiens, UniProt P15056, V600E)
Construct: expressed in transfected cells
Sequence (P15056 whole entry V600E): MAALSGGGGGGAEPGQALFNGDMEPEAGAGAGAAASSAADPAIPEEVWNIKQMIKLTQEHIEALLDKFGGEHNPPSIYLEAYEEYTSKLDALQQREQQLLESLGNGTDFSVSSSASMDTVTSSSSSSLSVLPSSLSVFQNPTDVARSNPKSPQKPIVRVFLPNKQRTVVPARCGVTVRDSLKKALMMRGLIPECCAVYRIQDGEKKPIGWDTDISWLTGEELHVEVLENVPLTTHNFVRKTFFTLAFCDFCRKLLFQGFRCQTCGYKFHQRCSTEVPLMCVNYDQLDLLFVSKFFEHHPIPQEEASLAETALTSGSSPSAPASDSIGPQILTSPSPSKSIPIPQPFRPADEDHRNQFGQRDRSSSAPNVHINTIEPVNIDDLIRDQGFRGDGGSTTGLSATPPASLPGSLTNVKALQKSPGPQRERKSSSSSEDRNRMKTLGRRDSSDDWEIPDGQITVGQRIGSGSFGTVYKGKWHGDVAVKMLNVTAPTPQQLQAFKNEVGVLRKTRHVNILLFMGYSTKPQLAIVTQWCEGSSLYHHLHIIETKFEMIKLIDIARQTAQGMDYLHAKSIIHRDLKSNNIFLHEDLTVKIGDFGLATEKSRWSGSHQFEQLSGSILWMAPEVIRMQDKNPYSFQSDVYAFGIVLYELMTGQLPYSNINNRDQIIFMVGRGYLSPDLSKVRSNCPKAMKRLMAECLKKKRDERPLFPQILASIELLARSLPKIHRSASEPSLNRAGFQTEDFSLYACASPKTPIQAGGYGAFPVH
Assay: Cellular assay of target protein degradation, T-Rex 293 cells stably transfected with HA-BRAF_V600E (HA immunofluorescence, high content imaging)
Format: cell-based
Conditions: maximum degradation observed, T-Rex 293 HA-BRAF V600E
Dmax values for the compounds below.

Compound	Dmax
O=C1CCC(N2Cc3cc(C4CCN(CC5CCN(c6ccc(-c7cnc8[nH]cc(C(=O)c9c(F)ccc(NS(=O)(=O)N%10CC[C@@H](F)C%10)c9F)c8c7)cc6F)CC5)CC4)ccc3C2=O)C(=O)N1 (stereo partly drawn) [Compound 36]	35 to 70%
CCCS(=O)(=O)Nc1ccc(F)c(C(=O)c2c[nH]c3ncc(-c4ccc(N5CCC(CN6CCN(c7ccc8c(c7)CN([C@H]7CCC(=O)NC7=O)C8=O)CC6)CC5)cc4)cc23)c1F [Compound 245]	35 to 70%
O=C1CCC(N2Cc3cc(N4CCC(CN5CCC(Cc6ccc(-c7cnc8[nH]cc(C(=O)c9c(F)ccc(NS(=O)(=O)N%10CC[C@@H](F)C%10)c9F)c8c7)cc6)CC5)CC4)ccc3C2=O)C(=O)N1 (stereo partly drawn) [Compound 154]	35 to 70%

In the following, a different compound is considered.
INPUT: What does the data say about its Dmax? Entry: COc1cc(N2CC3(CN(CCc4ccc(-c5cnc6[nH]cc(C(=O)c7c(F)ccc(NS(=O)(=O)N8CC[C@@H](F)C8)c7F)c6c5)cc4)C3)C2)ccc1C(=O)N[C@H]1CCC(=O)NC1=O [Compound 361]
OUTPUT: 35 to 70%
